The measurements presented in this section are drawn from ChEMBL document CHEMBL1135619.

# ASSAYED_SYSTEM: ATP-dependent translocase ABCB1 (Homo sapiens)
# Sequence (P08183 whole entry): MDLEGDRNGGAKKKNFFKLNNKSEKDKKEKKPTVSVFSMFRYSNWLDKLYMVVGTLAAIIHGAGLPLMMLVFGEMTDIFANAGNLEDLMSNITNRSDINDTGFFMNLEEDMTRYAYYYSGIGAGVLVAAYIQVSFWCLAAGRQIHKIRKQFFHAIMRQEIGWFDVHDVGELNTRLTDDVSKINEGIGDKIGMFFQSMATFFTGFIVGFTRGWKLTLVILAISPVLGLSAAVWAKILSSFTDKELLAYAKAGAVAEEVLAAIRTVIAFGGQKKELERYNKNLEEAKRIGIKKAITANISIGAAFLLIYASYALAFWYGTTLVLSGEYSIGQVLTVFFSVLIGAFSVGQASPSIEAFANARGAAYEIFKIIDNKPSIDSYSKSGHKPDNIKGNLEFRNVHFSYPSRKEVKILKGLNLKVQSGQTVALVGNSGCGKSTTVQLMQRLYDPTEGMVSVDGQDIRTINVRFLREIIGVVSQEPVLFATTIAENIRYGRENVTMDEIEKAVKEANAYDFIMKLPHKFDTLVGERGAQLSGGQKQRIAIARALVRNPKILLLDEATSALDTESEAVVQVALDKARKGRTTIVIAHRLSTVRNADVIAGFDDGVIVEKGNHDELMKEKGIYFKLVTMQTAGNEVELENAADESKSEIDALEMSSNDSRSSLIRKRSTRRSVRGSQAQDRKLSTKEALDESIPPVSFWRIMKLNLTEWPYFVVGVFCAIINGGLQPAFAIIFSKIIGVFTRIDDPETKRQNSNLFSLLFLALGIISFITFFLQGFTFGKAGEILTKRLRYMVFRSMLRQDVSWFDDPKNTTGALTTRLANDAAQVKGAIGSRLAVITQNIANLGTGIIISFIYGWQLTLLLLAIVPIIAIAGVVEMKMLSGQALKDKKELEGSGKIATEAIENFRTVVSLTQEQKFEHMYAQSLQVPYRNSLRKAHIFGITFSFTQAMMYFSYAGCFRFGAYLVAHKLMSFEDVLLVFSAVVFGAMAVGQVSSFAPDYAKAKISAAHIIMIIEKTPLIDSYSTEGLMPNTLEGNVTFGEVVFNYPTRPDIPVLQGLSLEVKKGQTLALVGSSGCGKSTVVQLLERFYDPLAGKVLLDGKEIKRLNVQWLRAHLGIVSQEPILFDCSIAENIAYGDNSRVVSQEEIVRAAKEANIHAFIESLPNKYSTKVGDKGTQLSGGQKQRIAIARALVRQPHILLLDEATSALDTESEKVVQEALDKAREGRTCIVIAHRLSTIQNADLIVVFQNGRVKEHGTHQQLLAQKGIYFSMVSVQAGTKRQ
ASSAY_ENDPOINT: IC50

Incoming: Short answer please: IC50, ATP-dependent translocase ABCB1 (Homo sapiens), entry `C/C=C/C[C@@H](C)[C@@H](O)[C@H]1C(=O)N[C@@H]([C@@H](C)O)C(=O)N(C)CC(=O)N[C@@H](C(C)C)C(=O)N[C@@H](C(C)C)C(=O)N(C)[C@@H](CC(C)C)C(=O)N[C@@H](C)C(=O)N[C@H](C)C(=O)N(C)[C@@H](CC(C)C)C(=O)N(C)[C@@H](CC(C)C)C(=O)N(C)[C@@H](C(C)C)C(=O)N1C`
Outgoing: > 100 µM
